Attribution: ChEMBL document CHEMBL1201862

system: SW-620; assay: NCI tumour cell line growth inhibition, 48 h
The source made the active and inactive calls. Cut-off read from the data, not from the text of the source: active = GI50 up to about 1.1 µM and inactive = higher.
Response enum: active, inactive

Here's what some known entries look like.
Nc1ccn(C2OC(COP(=O)(O)Oc3ccccc3)C(O)C2O)c(=O)n1 (stereo not given) : inactive
CCCC/C=C/C=C/C=C/CCCCCCCC(=O)OCC(COC(=O)CCCCCCC/C=C/C1C=CC(CCCC)C(C(=O)O)C1C(=O)O)OC(=O)CCCCCCC/C=C/C=C/C=C/CCCC.OCCNCO (stereo not given) : inactive
N=C1N=C(N)c2cc3c(cc21)SCCSCCCSCCS3 : inactive
COc1cccc(C2SCC(=O)N2c2ccc(-c3ccc(-n4c(-c5ccccc5)nc5ccccc5c4=O)cc3)cc2)c1OC (stereo not given) : inactive

# ---- query compound ----
Query string: Look up the recorded call for `C[N+](C)(C)CC(=O)N/N=C/c1ccncc1` in this test.
Result string: inactive

* * *

tested on: SK-MEL-2; assay: NCI tumour cell line growth inhibition, 48 h
Active and inactive are the calls of the source. Rule as the data show it: active = GI50 up to about 1.1 µM and inactive = higher.
Response enum: class 1 = active, class 0 = inactive

Here's what some known entries look like.
O=P(c1ccccc1)(c1ccccc1)C1CC=C2CCCCCC2C1 (stereo unspecified) : class 0
COc1ccc(/C=C\c2cc(OC)c(OC)c(OC)c2)cc1 : class 1
CCOC(=O)c1cn(-c2ccc(Cl)cc2)c(=O)n2c1nc1ccccc12 : class 0

Query string: Look up the recorded call for CC(=O)OCC1OC(n2cnc(C(N)=S)c2N)C(OC(C)=O)C1OC(C)=O (stereo unspecified) in this test.
Result string: class 0

Query string: Look up the recorded call for `Ic1ccc2c(c1)N(c1ccccc1)c1cc([N-]c3ccc4nc5ccc(I)cc5[n+](-c5ccccc5)c4c3)ccc1N2` in this test.
Result string: class 0

Query string: Look up the recorded call for COC(=O)C1=CC(=O)OC1(OO)c1ccccc1 (stereo unspecified) in this test.
Result string: class 0

Query string: Look up the recorded call for CCOC(=O)C(NC(=O)c1cccc(Cl)c1)(N1CCN(c2cc3c(cc2F)c(=O)c(C(=O)O)cn3C2CC2)CC1)C(F)(F)F (stereo unspecified) in this test.
Result string: class 0

Query string: Look up the recorded call for C[C@H](C1CC2(C)OC2(C)C(=O)O1)[C@H]1CC[C@H]2[C@@H]3[C@@H]4O[C@@H]4[C@@]4(O)CC=CC(=O)[C@]4(C)[C@H]3CC[C@]12C (stereo partly specified) in this test.
Result string: class 0

* * *

The following molecules are listed with their measured GI50 values.
test system: RXF 393; assay: NCI tumour cell line growth inhibition, 48 h
Active and inactive are the calls of the source. No stated cut-off is given here; in the data, active = GI50 up to about 1.1 µM and inactive = higher.

CN(C)CCCn1c2ccccc2c2cnccc21 : 57.4 µM (inactive)

Query string: So what does the record say about GI50 for `O=C(O)CCCCCOc1cccnc1/C=N/NC1=NCCN1` ?
Result string: > 100 µM (inactive)

Query string: So what does the record say about GI50 for `Cc1ccc(O)c(-c2cc(-c3cccc(Cl)c3)c(C#N)c(N)n2)c1` ?
Result string: 19.3 µM (inactive)

Query string: So what does the record say about GI50 for O=C[C@]12CC=C3OC4OC5(CCCCC5)OC4[C@H]3[C@H]1C(=O)C=CC2=O (some centres not stated) ?
Result string: 12.6 µM (inactive)

Query string: So what does the record say about GI50 for `O=c1c2cc3ccccc3n2c(=O)c2cc3ccccc3n12` ?
Result string: > 100 µM (inactive)

Query string: So what does the record say about GI50 for `COc1c(-c2nc3ccc(N4CCN(C)CC4)nc3[nH]2)cc(OC)c2c1nc(COC(C)=O)n2C` ?
Result string: 19 µM (inactive)

Query string: So what does the record say about GI50 for `Ic1ccc2c(c1)N(c1ccccc1)c1cc([N-]c3ccc4nc5ccc(I)cc5[n+](-c5ccccc5)c4c3)ccc1N2` ?
Result string: > 100 µM (inactive)

* * *

tested on: SN12C; test: NCI tumour cell line growth inhibition, 48 h
The source made the active and inactive calls. Rule as the data show it: active = GI50 up to about 1.1 µM and inactive = higher.
The following molecules are listed with their measured GI50 values.

CC1CC[C@]2(C(=O)O)CCC3(C)C(=CCC4[C@@]5(C)CC[C@H](OS(=O)(=O)c6ccccc6)C(C)(C)C5CC[C@]43C)[C@@H]2[C@H]1C (stereo partly specified) : > 100 µM (inactive)
CC(=O)OC1OC2C(NC(=O)OC(C)(C)C)C1CC2(OCc1ccccc1)OCc1ccccc1 (stereo unspecified) : 27.2 µM (inactive)
COc1cc(O)c2c(=O)c(OC)c(-c3ccc4c(c3)OCO4)oc2c1 : > 100 µM (inactive)
Oc1ccc(Br)cc1/C=N/c1ccc(Oc2ccc(/N=C/c3cc(Br)ccc3O)cc2)cc1 : > 19.6 µM (inactive)
Brc1ccc2[nH]cc(-c3csc(-c4c[nH]c5ccccc45)n3)c2c1 : 3.66 µM (inactive)

Query string: So what does the record say about GI50 for `CCCCCCN(CCCCCC)CCC(=O)c1ccc2cc(Br)c3ccccc3c2c1` ?
Result string: 34 µM (inactive)

* * *

test system: MOLT-4; test: NCI tumour cell line growth inhibition, 48 h
The source made the active and inactive calls. Rule as the data show it: active = GI50 up to about 1.1 µM and inactive = higher.
Response enum: class 1 = active, class 0 = inactive

O=C1C(CN2CCCCC2)CCC1CN1CCCCC1 (stereo unspecified) : class 0
CC(C)C1C(=O)N2CCCC2C2(O)OC(NC(=O)C3C=C4c5cccc6[nH]cc(c56)CC4N(C)C3)(C(C)C)C(=O)N12 (stereo unspecified) : class 0
CCOc1ccc(/N=C/c2ccnc3ccccc23)cc1 : class 0

Query string: Look up the recorded call for O=C1CCCC1CN1CCCC1 (stereo unspecified) in this test.
Result string: class 1

Query string: Look up the recorded call for CCC1(O)C(=O)OCc2c1cc1n(c2=O)Cc2cc3ccc(C=O)cc3nc2-1 (stereo unspecified) in this test.
Result string: class 1

Query string: Look up the recorded call for `Nc1ccc(C(=O)N/C(=C\c2ccc3c(c2)OCO3)c2nc3ccccc3s2)cc1` in this test.
Result string: class 0

* * *

system: SF-268; assay: NCI tumour cell line growth inhibition, 48 h
Activity calls are given as the source filed them. Rule as the data show it: active = GI50 up to about 1.1 µM and inactive = higher.
Response enum: yes (1) (active), no (0) (inactive)

Here's what some known entries look like.
COC(c1ccc(C(C)(C)C)cc1)(c1ccc(C(C)(C)C)cc1)c1ccc(C(C)(C)C)cc1 : no (0)
CN(C)CCCn1c2ccccc2c2cnccc21 : no (0)
O=C(O)CSc1nnc(-c2ccc(O)cc2)[nH]1 : no (0)
COC(=O)c1ccccc1/C=C1/Cc2cccc(C)c2C1=O : no (0)
Clc1ccc(Nc2ncco2)cc1Cl : no (0)
COc1ccc2nc3ccccc3c(NCCN(C)CCCl)c2c1 : yes (1)
Cc1ccc2oc3c(c(Br)c(Br)n3C)c(=O)c2c1 : no (0)
C/C(CCOC1CCCCO1)=C(\C)[Si](C)(C)C (stereo not given) : no (0)
O=C1C(Cl)=C(N2CCN(c3ncccn3)CC2)C(=O)c2c(O)ccc(O)c21 : no (0)
O=C1c2ccccc2C(=O)C1C(c1ccc([N+](=O)[O-])cc1)C1C(=O)c2ccccc2C1=O : no (0)

# ---- query molecule ----
Query string: Look up the recorded call for O=c1[nH]c(=O)n(C2OC(CO)C(O)C2O)c2nc(-c3ccc(-c4ccccc4)cc3)cnc12 (stereo not given) in this test.
Result string: no (0)

* * *

test system: MDA-N; assay: NCI tumour cell line growth inhibition, 48 h
The source made the active and inactive calls. No stated cut-off is given here; in the data, active = GI50 up to about 1.1 µM and inactive = higher.
Response enum: active, inactive

Here's what some known entries look like.
COc1cc2oc(-c3ccc(O)cc3)cc(=O)c2c(OC)c1O : inactive
CN(C)CCNc1ccc(NCC[N+](C)(C)Cc2ccc([N+](=O)[O-])cc2)c2c1C(=O)c1ccccc1C2=O : inactive
COC(c1ccc(C(C)(C)C)cc1)(c1ccc(C(C)(C)C)cc1)c1ccc(C(C)(C)C)cc1 : inactive

Query string: Look up the recorded call for CCC(=O)OC1CCn2c1nc1c2C(=O)C(C)=C(N2CC2)C1=O (centres undefined) in this test.
Result string: active

Query string: Look up the recorded call for `COc1cc([C@@H]2c3cc4c(cc3[C@@H](NCCNCCO)[C@H]3COC(=O)[C@H]23)OCO4)cc(OC)c1O` in this test.
Result string: inactive

Query string: Look up the recorded call for `O=C(CCCl)NN=C1NCCCCN1` in this test.
Result string: inactive

Query string: Look up the recorded call for CC1=C(/C=C/C(C)=C/C=C/C(C)=C/C(=O)OC2CC(n3cc(F)c(=O)[nH]c3=O)OC2CO)C(C)(C)CCC1 (centres undefined) in this test.
Result string: inactive

Query string: Look up the recorded call for `COC(=O)c1ccccc1/C=C1/Cc2cccc(C)c2C1=O` in this test.
Result string: inactive

Query string: Look up the recorded call for `Cn1c2ccccc2n2c(N=O)c(-c3ccccc3)nc12` in this test.
Result string: inactive

* * *

tested on: HOP-92; assay: NCI tumour cell line growth inhibition, 48 h
Activity calls are given as the source filed them. No stated cut-off is given here; in the data, active = GI50 up to about 1.1 µM and inactive = higher.
The following compounds are listed with their measured GI50 values.

Solved entries (count: 3):
COc1cc2c(cc1OCCOS(C)(=O)=O)N=C[C@@H]1CCCN1C2=O : 21.4 µM (inactive)
COc1cc(/C=C/c2ccc(OC)c(O)c2)cc(OC)c1 : 7.71 µM (inactive)
CC(=O)Oc1ccc(/C=C/C(=O)OCCCOC(=O)/C=C/c2ccc(OC(C)=O)c(OC(C)=O)c2)cc1OC(C)=O : > 100 µM (inactive)

Query string: GI50 of COc1ccc(CC(C)N)cc1 (configuration not stated) on HOP-92?
Result string: > 100 µM (inactive)

Query string: GI50 of O=[N+]([O-])c1ccc2c(c1)nc1n2C(c2c(F)cccc2F)SC1 (configuration not stated) on HOP-92?
Result string: 62.1 µM (inactive)

Query string: GI50 of C/C(CCOC1CCCCO1)=C(\C)[Si](C)(C)C (configuration not stated) on HOP-92?
Result string: > 100 µM (inactive)

Query string: GI50 of `CN(C)CCCn1c2ccccc2c2cnccc21` on HOP-92?
Result string: 94.6 µM (inactive)
